Cited source for all entries: ChEMBL document CHEMBL1201862

system: UO-31; experiment: NCI tumour cell line growth inhibition, 48 h
Active and inactive are the calls of the source. Cut-off read from the data, not from the text of the source: active = GI50 up to about 1.1 µM and inactive = higher.
Quick reference: GI50 of the listed items.

Answered cases to consult:
| compound | recorded-endpoint | result |
| --- | --- | --- |
| NC(=S)N/N=C(/CC(=O)c1ccccc1)C(=O)Nc1ccc(Cl)c(Cl)c1 | GI50 | 51.2 µM (inactive) |
| O=C(NN1C(=O)CSC1c1ccco1)c1ccncc1 (stereo not given) | GI50 | > 100 µM (inactive) |

Lab note: next compound to report on.
// sample NC(=S)NN=C1Cc2ccccc2C1 , its GI50 was > 100 µM (inactive)

---

tested on: EKVX; experiment: NCI tumour cell line growth inhibition, 48 h
Active and inactive are the calls of the source. Cut-off read from the data, not from the text of the source: active = GI50 up to about 1.1 µM and inactive = higher.
GI50 values, listed per item

Below, each entry is followed by its recorded GI50 result.
| compound | result |
| --- | --- |
| O=C1c2ccccc2OCC1/C=N/O (stereo unspecified) | 65.6 µM (inactive) |
| CNS(=O)(=O)NNS(=O)(=O)c1ccc(C)cc1 | > 100 µM (inactive) |
| Cc1cc(OCC(O)CO)ccc1-c1ccccc1 (stereo unspecified) | 80.2 µM (inactive) |
| C#CCC[C@@H]1O[C@@]1(C)CC/C=C(\C)CC/C=C/C=O | 58.3 µM (inactive) |
| Oc1nc(-c2cccc(F)c2)nc2ccccc12 | > 67.3 µM (inactive) |

Looking up O=[N+]([O-])/C=C/c1cc2ccccc2[nH]1 , I see its GI50 listed as 29.2 µM (inactive)

Looking up CC(C)C1OC(N)=C(C#N)C1(C#N)C#N (stereo unspecified) , I found its GI50 recorded as 62.2 µM (inactive)

Recorded result, CC(C)NC1(C(N)=O)CCN(Cc2ccccc2)CC1 , GI50: > 100 µM (inactive)

# GI50 (compound: O=C(C[C@@H]1CCCN2CCCC[C@H]12)N1c2ccccc2Sc2ccc(Cl)cc21 ) is 19.1 µM (inactive)

// GI50 value for C[C@]12c3c4cc(NC(=O)C(=O)NCc5ccc(-c6ccccn6)nc5)cc3Oc3cc(NC(=O)C(=O)NCc5ccc(-c6ccccn6)nc5)cc(c31)OC1C=C(NC(=O)C(=O)NCc3ccc(-c5ccccn5)nc3)C=C(O4)C12 (stereo partly specified) : 11.5 µM (inactive)

Documented GI50 of NC(CCc1nc(-c2ccc(Cl)cc2)cs1)C(=O)O (stereo unspecified) : > 100 µM (inactive)

Looking up Cc1ccc(Oc2cc(C)ccc2P(=O)(O)O)cc1 , I see its GI50 listed as > 100 µM (inactive)

The compound identified as COc1cccc(NC(=O)N/C(=C/c2ccc(N(CCC#N)CCC#N)cc2)NC(=O)c2cc([N+](=O)[O-])ccc2Cl)c1 registered its GI50 at > 100 µM (inactive)

In plain terms, Cc1cc(N(CCC#N)CCC#N)ccc1/N=N/c1ccc([N+](=O)[O-])cc1 has a documented GI50 of > 100 µM (inactive)

Input CC(=O)CCC[C@@H](C)[C@@H]1O[C@H]([C@@]2(C)CCC(=O)O2)C[C@H]2C(CSc3ccccc3)C(=O)O[C@@H]12 (stereo partly specified) . Output GI50: 9.98 µM (inactive)

The recorded GI50 for COc1ccccc1NC(=O)CSC(N)=O is 60.1 µM (inactive)

Per the record, Oc1ccc(Cl)cc1-c1cc(-c2ccccc2)nc(S)n1 has GI50 of 4.52 µM (inactive)

Memo: COc1cc(Br)cc2c1O[C@H]1C(=O)CC3CC21CCN3C (stereo partly specified) , reported GI50: 61 µM (inactive)

The compound CCCc1nc(NC#N)nc(C(=O)NC23CC4CC(CC(C4)C2)C3)c1C showed GI50 equal to > 100 µM (inactive)

Entry COc1cc(/C=C(/C#N)C(N)=O)ccc1O , GI50 reported as > 100 µM (inactive)

Looking up CC1CCC2C(C)C(=O)OC3OC4(C)CCC1C32OO4 (stereo unspecified) , I found its GI50 recorded as > 97.1 µM (inactive)
